Biological target: T1, recombinant human activated Factor VII (FVIIa) (human, UniProt P08709 61-212; P08709 213-466, ten glutamate residues of the Gla domain may be gamma-carboxylated)
T1 construct: chains tethered by a disulfide bond; also called Factor VIIa; rFVIIa
T1 sequence 1: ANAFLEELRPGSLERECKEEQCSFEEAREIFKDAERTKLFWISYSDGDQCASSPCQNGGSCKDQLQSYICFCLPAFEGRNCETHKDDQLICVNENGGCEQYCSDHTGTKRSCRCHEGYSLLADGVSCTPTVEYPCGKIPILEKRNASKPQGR
T1 sequence 2: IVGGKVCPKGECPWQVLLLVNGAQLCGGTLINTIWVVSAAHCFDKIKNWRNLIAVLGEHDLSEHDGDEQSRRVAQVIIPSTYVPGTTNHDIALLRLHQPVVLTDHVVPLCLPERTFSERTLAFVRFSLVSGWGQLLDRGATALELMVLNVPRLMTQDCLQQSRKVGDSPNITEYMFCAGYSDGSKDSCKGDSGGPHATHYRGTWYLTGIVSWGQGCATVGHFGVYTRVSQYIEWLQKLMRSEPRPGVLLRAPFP
Experiment: BLI (Fortebio)
observed.property: Kd (nM)
One number for each entry, in nM.

binder	numeric.readout
VH SEQ ID NO 530 / VL SEQ ID NO 502 (antibody, IgG4, V domains shown, humanized 11F2; IgG4 S228P/kappa) VH: QVQLQESGPGLVEPSQTLSLTCTVSGYSISSDSAWSWIRQPPGKGLEWIGYIQYSGSTNYNPSLKSRVTISRDTSKNQFSLKLSSVTAADTAVYYCARSVNYYGNSFAVGYWGQGTLVTVSS VL: EIVLTQSPATLSLSPGERATLSCRASQGVSDYLHWYQQKPGQAPRLLIKYTSQPATGIPARFSGSGSGTDFTLTISSLEPEDFAVYYCQNGHSFPLTFGQGTKLEIK	0.94

// next entry
Looking up VH SEQ ID NO 522 / VL SEQ ID NO 502 (antibody, IgG4, V domains shown, humanized 11F2; IgG4 S228P/kappa) VH: QVQLQESGPGLVEPSQTLSLTCTVSGYSISSDSAWSWIRQPPGKGLEWIGYIQYSGSTNYNPSLKSRVTISRDTSKNQFSLKLSSVTAADTAVYYCARSVNYYGNSFAVGPWGQGTLVTVSS VL: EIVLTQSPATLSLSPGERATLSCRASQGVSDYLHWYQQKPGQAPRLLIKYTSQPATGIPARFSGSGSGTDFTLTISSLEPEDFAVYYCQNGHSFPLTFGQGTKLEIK , I see its Kd listed as 1.4

Values were extracted from patent US20220064329A1.
